The origin of these recorded values is patent US20090264401A1.

Biological target: human 11βHSD1 enzyme (Homo sapiens)
Construct: baculovirus expressed N terminal 6-His tagged full length human 11βHSD1 enzyme; 6-His (N); made in house
Sequence (P28845 whole entry): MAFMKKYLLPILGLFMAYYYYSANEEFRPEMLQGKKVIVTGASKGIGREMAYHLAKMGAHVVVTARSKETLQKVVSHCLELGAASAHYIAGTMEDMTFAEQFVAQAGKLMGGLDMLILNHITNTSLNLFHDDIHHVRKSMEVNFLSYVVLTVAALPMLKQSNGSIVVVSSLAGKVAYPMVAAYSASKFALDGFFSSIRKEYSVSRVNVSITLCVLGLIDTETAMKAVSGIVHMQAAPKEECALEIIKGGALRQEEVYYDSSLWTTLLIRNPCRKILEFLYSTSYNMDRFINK
Assay: 11βHSD1 cortisone to cortisol conversion, competitive HTRF assay
Format: biochemical
Settings: human 11-βHSD; test concentration of 30 μM of compound
property-label: inhibition at 30 µM (%)

{"compound": "CCCSc1ncc(C(=O)N[C@H]2C3CC4CC2C[C@@](O)(C4)C3)c(SCCC)n1 [Example 16]", "display-unit": "%", "inhibition at 30 µM": 95.8}
{"compound": "CCOc1nc(OC2CCC2)ncc1C(=O)N[C@H]1C2CC3CC1C[C@@](O)(C3)C2 [Example 213]", "display-unit": "%", "inhibition at 30 µM": 107}
{"compound": "CCOc1nc(NC2CC2)ncc1C(=O)N[C@H]1C2CC3CC1C[C@@](O)(C3)C2 [Example 210]", "display-unit": "%", "inhibition at 30 µM": 97.2}
{"compound": "O=C(N[C@H]1C2CC3CC1C[C@@](O)(C3)C2)c1cnc(N[C@@H]2CCOC2)nc1C1CCCC1 [Example 142]", "display-unit": "%", "inhibition at 30 µM": 99.7}
